# Target: Gp6 (Mycobacterium phage L5, UniProt Q05278, L15P)
# Construct: pET-30a(+) vector-encoded N-terminal leader (additional residues up to the EcoRI site) (N); made in house; host or cells: E. coli BL21(DE3)
# Sequence (Q05278 other isoform, or with tags, fused parts or gaps L15P): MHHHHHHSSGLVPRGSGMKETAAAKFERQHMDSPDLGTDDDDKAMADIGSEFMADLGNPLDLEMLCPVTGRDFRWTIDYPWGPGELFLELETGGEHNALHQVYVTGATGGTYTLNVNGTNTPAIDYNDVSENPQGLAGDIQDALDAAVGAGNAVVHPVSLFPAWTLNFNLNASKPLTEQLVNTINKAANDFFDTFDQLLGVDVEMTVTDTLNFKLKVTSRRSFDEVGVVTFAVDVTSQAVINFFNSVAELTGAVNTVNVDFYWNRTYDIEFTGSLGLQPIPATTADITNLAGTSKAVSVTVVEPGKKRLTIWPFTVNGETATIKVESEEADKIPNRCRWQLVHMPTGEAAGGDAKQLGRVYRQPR
# Test Method Notes: Direct ESI-MS assay of carbohydrate binding
# Set-up: species or system mycobacteriophage L5
Assay Endpoint: Kd

{"Compound": "O=C(NCCCCCCCCO[C@H]1O[C@H](CO[C@H]2O[C@H](CO)[C@@H](O[C@H]3O[C@H](CO)[C@@H](O)[C@@H]3O[C@@H]3O[C@H](CO)[C@@H](O)[C@@H]3O)[C@@H]2O)[C@@H](O)[C@@H]1O)C(F)(F)F [compound 7]", "Measured Result": "909 µM"}
{"Compound": "O=C(NCCCCCCCCO[C@H]1O[C@H](CO[C@H]2O[C@H](CO[C@H]3O[C@H](CO)[C@@H](O)[C@@H]3O)[C@@H](O)[C@@H]2O)[C@@H](O)[C@@H]1O)C(F)(F)F [compound 5]", "Measured Result": "132 µM"}
{"Compound": "O=C(NCCCCCCCCO[C@H]1O[C@H](CO[C@H]2O[C@H](CO[C@H]3O[C@H](CO)[C@@H](O)[C@@H]3O[C@@H]3O[C@H](CO[C@H]4O[C@H](CO)[C@@H](O)[C@H](O)[C@@H]4O[C@H]4O[C@H](CO)[C@@H](O)[C@H](O)[C@@H]4O[C@H]4O[C@H](CO)[C@@H](O)[C@H](O)[C@@H]4O)[C@@H](O)[C@@H]3O)[C@@H](O)[C@@H]2O)[C@@H](O)[C@@H]1O)C(F)(F)F [compound 9]", "Measured Result": "385 µM"}
{"Compound": "O=C(NCCCCCCCCO[C@H]1O[C@H](CO[C@H]2O[C@H](CO[C@H]3O[C@H](CO)[C@@H](O)[C@@H]3O[C@@H]3O[C@H](CO)[C@@H](O)[C@@H]3O)[C@@H](O[C@H]3O[C@H](CO)[C@@H](O)[C@@H]3O[C@@H]3O[C@H](CO)[C@@H](O)[C@@H]3O)[C@@H]2O)[C@@H](O)[C@@H]1O)C(F)(F)F [compound 3]", "Measured Result": "278 µM"}
{"Compound": "O=C(NCCCCCCCCO[C@H]1O[C@H](CO[C@H]2O[C@H](CO[C@H]3O[C@H](CO)[C@@H](O)[C@@H]3O[C@@H]3O[C@H](CO[C@H]4O[C@H](CO)[C@@H](O)[C@H](O)[C@@H]4O[C@H]4O[C@H](CO)[C@@H](O)[C@H](O)[C@@H]4O)[C@@H](O)[C@@H]3O)[C@@H](O)[C@@H]2O)[C@@H](O)[C@@H]1O)C(F)(F)F [compound 2]", "Measured Result": "227 µM"}
{"Compound": "COc1ccc(O[C@@H]2O[C@@H](C)[C@H](O)[C@@H](O[C@@H]3O[C@@H](C)[C@H](O)[C@@H](O[C@@H]4O[C@@H](C)[C@@H](OC)[C@@H](OC)[C@@H]4OC)[C@H]3O)[C@H]2O)cc1 [compound 12]", "Measured Result": "286 µM"}
{"Compound": "COc1ccc(O[C@@H]2O[C@@H](C)[C@H](O)[C@@H](O[C@@H]3O[C@@H](C)[C@H](O)[C@@H](O[C@@H]4O[C@@H](C)[C@@H](OC)[C@@H](OC)[C@@H]4OC)[C@H]3O)[C@H]2OC)cc1 [compound 10]", "Measured Result": "1000 µM"}
{"Compound": "COC[C@H]1O[C@@H](O[C@@H]2[C@@H](OC)[C@@H](OC)[C@H](O[C@H]3[C@H](Oc4ccc(OC)cc4)O[C@@H](C)[C@H](O)[C@H]3OC)O[C@H]2C)[C@H](O)[C@@H](OC)[C@@H]1O [compound 13]", "Measured Result": "417 µM"}
